Biological target: Avi-KRAS G12V (1-169) GppNHp/RAF1 RBD-3xFLAG (52-151) (Homo sapiens, UniProt P01116, G12V)
Construct: Avi-KRAS G12V (1-169)
Sequence (P01116 1-169 isoform P01116-2 G12V): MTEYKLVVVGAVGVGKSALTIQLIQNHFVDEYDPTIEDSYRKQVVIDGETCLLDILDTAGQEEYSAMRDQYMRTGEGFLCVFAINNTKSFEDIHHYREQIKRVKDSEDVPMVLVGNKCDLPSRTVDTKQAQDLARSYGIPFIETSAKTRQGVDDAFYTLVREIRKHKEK
Assay: Raf1-KRAS G12V-GppNHP disruption HTRF assay (Biological Example 1)
Type: binding
Details: KRAS G12V, GppNHp-loaded; class symbols
measurement_kind: IC50

>>> reported_measurement("Cc1c(C(=O)N2CCCC2)nn2c1CN(c1nc(OCC34CCCN3CC(F)C4)nc3c(F)c(-c4ccc(F)c5sc(N)c(C#N)c45)c(C(F)(F)F)cc13)CC2 (centres unmarked)")
"100 to 1000 nM"
>>> reported_measurement("Cc1ccc(CN(C)c2nc(OC[C@@]34CCCN3C[C@H](F)C4)nc3c(F)c(-c4ccc(F)c5sc(N)c(C#N)c45)c(C(F)(F)F)cc23)c(N)n1 (atropisomer, axis not shown)")
"100 to 1000 nM"
>>> reported_measurement("CCN(c1nc(OC[C@@]23CCCN2C[C@H](F)C3)nc2c(F)c(-c3ccc(F)c4sc(N)c(C#N)c34)c(C(F)(F)F)cc12)[C@H]1C[C@H](COC)N(C(=O)C2CC2)C1 (atropisomer, axis not shown)")
"< 100 nM"
>>> reported_measurement("N#Cc1c(N)sc2c(F)ccc(-c3c(C(F)(F)F)cc4c(N(C5CC5)[C@H]5CCN(C(=O)[C@@H]6CC6(F)F)C5)nc(OC[C@@]56CCCN5C[C@H](F)C6)nc4c3F)c12 (atropisomer, axis not shown)")
"100 to 1000 nM"
>>> reported_measurement("[2H]C1([2H])OC(=O)N2C[C@@H](N(CC)c3nc(OC[C@@]45CCCN4C[C@H](F)C5)nc4c(F)c(-c5ccc(F)c6sc(N)c(C#N)c56)c(C(F)(F)F)cc34)C[C@H]21 (atropisomer, axis not shown)")
"< 100 nM"

====

Target: Avi-KRAS G12D (2-169) GTP/RAF1 RBD-3xFLAG (51-131) (Homo sapiens, UniProt P01116, G12D)
Construct: Avi-KRAS G12D (2-169)
Sequence (P01116 2-169 isoform P01116-2 G12D): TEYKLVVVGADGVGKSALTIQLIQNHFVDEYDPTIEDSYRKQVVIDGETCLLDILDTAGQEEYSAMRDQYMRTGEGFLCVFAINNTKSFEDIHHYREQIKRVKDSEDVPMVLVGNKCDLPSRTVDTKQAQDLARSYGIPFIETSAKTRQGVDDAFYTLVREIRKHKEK
Test: Raf1-KRAS G12D-GTP disruption HTRF assay (Biological Example 3)
Assay type: binding
Details: KRAS G12D, GTP-loaded
pIC50: −log10 of the molar value.
measurement_kind: pIC50

>>> reported_measurement("Cc1c(C(=O)N2CCOCC2)nn2c1CN(c1nc(OCC34CCCN3CC(F)C4)nc3c(F)c(-c4ccc(F)c5sc(N)c(C#N)c45)c(C(F)(F)F)cc13)CC2 (centres unmarked)")
"6.00 to 7.00"
>>> reported_measurement("CCN(c1nc(OC[C@@]23CCCN2C[C@H](F)C3)nc2c(F)c(-c3ccc(F)c4sc(N)c(C#N)c34)c(C(F)(F)F)cc12)[C@H]1CCN(C(=O)c2cccs2)C1 (atropisomer, axis not shown)")
"6.00 to 7.00"
>>> reported_measurement("CCN(c1nc(OC[C@@]23CCCN2C[C@H](F)C3)nc2c(F)c(-c3ccc(F)c4sc(N)c(C#N)c34)c(C(F)(F)F)cc12)[C@H]1C[C@H]2CCCC(=O)N2C1 (atropisomer, axis not shown; (aR))")
"≥ 7.00"
>>> reported_measurement("CN(c1nc(OC[C@@]23CCCN2C[C@H](F)C3)nc2c(F)c(-c3ccc(F)c4sc(N)c(C#N)c34)c(C(F)(F)F)cc12)[C@H]1C[C@@H](O)C1")
"≥ 7.00"
>>> reported_measurement("CCN(c1nc(OC[C@@]23CCCN2C[C@H](F)C3)nc2c(F)c(-c3ccc(F)c4sc(N)c(C#N)c34)c(C(F)(F)F)cc12)[C@@H]1CN2C(=O)N(C)C[C@]2(C)C1 (atropisomer, axis not shown)")
"6.00 to 7.00"
>>> reported_measurement("CCN(c1nc(OC[C@@]23CCCN2C[C@H](F)C3)nc2c(F)c(-c3ccc(F)c4sc(N)c(C#N)c34)c(C(F)(F)F)cc12)[C@H]1CCN(C(=O)OC)[C@@H]1COC (atropisomer, axis not shown)")
"6.00 to 7.00"
>>> reported_measurement("CCN(c1nc(OC[C@@]23CCCN2C[C@H](F)C3)nc2c(F)c(-c3ccc(F)c4sc(N)c(C#N)c34)c(C(F)(F)F)cc12)[C@H]1CCN(C(=O)[C@@H]2CCO2)C1 (atropisomer, axis not shown)")
"≥ 7.00"
>>> reported_measurement("CCN(c1nc(OC[C@@]23CCCN2C[C@H](F)C3)nc2c(F)c(-c3ccc(F)c4sc(N)c(C#N)c34)c(C(F)(F)F)cc12)[C@H]1C[C@H]2C[C@@H](C)C(=O)N2C1 (atropisomer, axis not shown)")
"≥ 7.00"
>>> reported_measurement("CCN(c1nc(OC[C@@]23CCCN2C[C@H](F)C3)nc2c(F)c(-c3ccc(F)c4sc(N)c(C#N)c34)c(C(F)(F)F)cc12)[C@H]1CCN(C(=O)c2coc(C)n2)[C@@H]1C (atropisomer, axis not shown)")
"6.00 to 7.00"
>>> reported_measurement("CN(Cc1cnccn1)c1nc(OC[C@@]23CCCN2C[C@H](F)C3)nc2c(F)c(-c3ccc(F)c4sc(N)c(C#N)c34)c(C(F)(F)F)cc12 (atropisomer, axis not shown)")
"6.00 to 7.00"
>>> reported_measurement("CCN(c1nc(OC[C@@]23CCCN2C[C@H](F)C3)nc2c(F)c(-c3ccc(F)c4sc(N)c(C#N)c34)c(C(F)(F)F)cc12)[C@H]1C[C@H]2CN(CC(F)F)C(=O)N2C1 (atropisomer, axis not shown)")
"6.00 to 7.00"
>>> reported_measurement("CCN(c1nc(OC[C@@]23CCCN2C[C@H](F)C3)nc2c(F)c(-c3ccc(F)c4sc(N)c(C#N)c34)c(C(F)(F)F)cc12)[C@H]1CC[C@@H](C(=O)N(C)C)C1 (atropisomer, axis not shown)")
"6.00 to 7.00"
>>> reported_measurement("CCN(c1nc(OC[C@@]23CCCN2C[C@H](F)C3)nc2c(F)c(-c3ccc(F)c4sc(N)c(C#N)c34)c(C(F)(F)F)cc12)[C@H]1CCN(C(=O)[C@H]2C[C@@H](F)C2)C1 (atropisomer, axis not shown)")
"6.00 to 7.00"
>>> reported_measurement("CCN(c1nc(OC[C@@]23CCCN2C[C@H](F)C3)nc2c(F)c(-c3ccc(F)c4sc(N)c(C#N)c34)c(C(F)(F)F)cc12)[C@H]1C[C@@H](C)N(C(=O)C2COC2)C1 (atropisomer, axis not shown)")
"6.00 to 7.00"
>>> reported_measurement("CCN(c1nc(OC[C@@]23CCCN2C[C@H](F)C3)nc2c(F)c(-c3ccc(F)c4sc(N)c(C#N)c34)c(C(F)(F)F)cc12)[C@H]1CCN(C(=O)c2ccon2)[C@@H]1C")
"6.00 to 7.00"
>>> reported_measurement("CCN(c1nc(OC[C@@]23CCCN2C[C@H](F)C3)nc2c(F)c(-c3ccc(F)c4sc(N)c(C#N)c34)c(C(F)(F)F)cc12)[C@H]1C[C@H]2[C@H](C)OC(=O)N2C1 (atropisomer, axis not shown)")
"6.00 to 7.00"
>>> reported_measurement("CCN(c1nc(OC[C@@]23CCCN2C[C@H](F)C3)nc2c(F)c(-c3ccc(F)c4sc(N)c(C#N)c34)c(C(F)(F)F)cc12)[C@H]1CCN(C(=O)N2CC3C(C2)C3(C)C)C1 (some centres unmarked)")
"6.00 to 7.00"

====

Here, each record is paired with measured IC50 data.
Biological target: Avi-KRAS G12D (1-169) GppNHp/RAF1 RBD-3xFLAG (52-151) (Homo sapiens, UniProt P01116, G12D)
Construct: Avi-KRAS G12D (1-169)
Sequence (P01116 1-169 isoform P01116-2 G12D): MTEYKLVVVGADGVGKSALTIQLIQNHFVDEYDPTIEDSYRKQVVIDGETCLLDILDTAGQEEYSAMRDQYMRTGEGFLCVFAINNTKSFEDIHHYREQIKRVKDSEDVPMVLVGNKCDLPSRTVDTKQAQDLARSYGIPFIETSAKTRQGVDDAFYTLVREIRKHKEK
Assay: Raf1-KRAS G12D-GppNHP disruption HTRF assay (Biological Example 1)
Type: binding
Details: KRAS G12D, GppNHp-loaded; Table 11
measurement_kind: IC50

>>> reported_measurement("N#Cc1c(N)sc2c(F)ccc(-c3c(C(F)(F)F)cc4c(N5CC(F)(F)C5)nc(OC[C@@]56CCCN5C[C@H](F)C6)nc4c3F)c12")
"100 to 1000 nM"
>>> reported_measurement("N#Cc1c(N)sc2c(F)ccc(-c3c(C(F)(F)F)cc4c(N5CCCC(O)CC5)nc(OC[C@@]56CCCN5C[C@H](F)C6)nc4c3F)c12 (stereo partly drawn)")
"< 100 nM"
>>> reported_measurement("C[C@@]1(O)CCCN(c2nc(OC[C@@]34CCCN3C[C@H](F)C4)nc3c(F)c(-c4ccc(F)c5sc(N)c(C#N)c45)c(C(F)(F)F)cc23)C1")
"100 to 1000 nM"
>>> reported_measurement("CCN(CCO)c1nc(OC[C@@H]2CC3(CC3)CN2C)nc2c(F)c(-c3ccc(F)c4sc(N)c(C#N)c34)c(C(F)(F)F)cc12")
"100 to 1000 nM"
>>> reported_measurement("N#Cc1c(N)sc2c(F)ccc(-c3c(C(F)(F)F)cc4c(N5CCC[C@H](O)C5)nc(OC[C@@]56CCCN5C[C@H](F)C6)nc4c3F)c12")
"100 to 1000 nM"
>>> reported_measurement("CN(CC1(CO)CC1)c1nc(OC[C@@]23CCCN2C[C@H](F)C3)nc2c(F)c(-c3ccc(F)c4sc(N)c(C#N)c34)c(C(F)(F)F)cc12")
"100 to 1000 nM"
